system: SR leukemia; experiment: NCI-60 one-dose screen, 48 h; details: 10 µM
About 83,000 compounds went through this panel and 20% of them were active in at least one assay; those are over-represented in the sample as a whole. Calls of active or inactive are those of the source. How the source made its calls: active means growth percent below 10; inactive means the rest.
Lab note: assign the record to one of true for active, false for inactive

Challenge: Assay outcome for Cc1ccc(C)c2c1sc1nc3n[nH]c(N)c3c(=N)n12 : what was it?
Response given: false

###

tested on: A498 renal; assay: NCI-60 one-dose screen, 48 h; conditions: 10 µM
This is part of a sample that, as a whole, favours compounds with a hit. Of some 83,000 tested, about 20% had one in any assay. Calls of active or inactive are those of the source. The calls were made as follows: active = growth percent below 10; inactive = the rest.
Lab note: assign the record to one of active, inactive

Solved cases (6 shown):
{"columns": ["compound", "class name"],
 "data": [
  ["COc1ccc(C2=Cc3ccc(OC(C)=O)cc3OC2)cc1", "inactive"],
  ["CN(C)Cc1cccs1", "inactive"],
  ["CCn1nc(-c2ccccn2)c2cccnc2c1=S", "inactive"],
  ["COc1ccc(C(=O)n2nc(CC(=O)NCc3ccccc3)nc2N)cc1", "inactive"],
  ["Nc1nc2c(ncn2C2OC3COP(=O)(O)OC4C(COP(=O)(O)OC2C3O)OC(n2cnc3c(N)ncnc32)C4O)c(=O)[nH]1 (stereo unspecified)", "active"],
  ["O=C(NC1CCCC1)c1ccc(N2CCC(NCc3cccc(C(F)(F)F)c3)CC2)cc1", "inactive"]
]}

Challenge: Assay outcome for CC(C)C[C@H](NC(=O)CCn1ccc2ccccc2c1=O)B(O)O : what was it?
Response given: active

Challenge: Assay outcome for COc1ccc(-c2nnc(COc3ccc(NC(=O)Nc4cccc(C(F)(F)F)c4)cc3F)o2)cc1 : what was it?
Response given: inactive

Challenge: Assay outcome for CCNC(=S)NN : what was it?
Response given: inactive

Challenge: Assay outcome for C=CCOc1ccc2c(c1)CC=C1[C@@H]2CC[C@]2(C)C(=O)/C(=N/O)C[C@@H]12 : what was it?
Response given: inactive

Challenge: Assay outcome for CC(=O)OC1Oc2ccccc2-c2oc(=O)c(-c3ccc(F)cc3)cc21 (stereo unspecified) : what was it?
Response given: active
